Tested on: OVCAR-4 ovarian
test.details: NCI tumour cell line growth inhibition, 48 h
The reader will find reported TGI values listed item by item below.

Req: Consider the compound `Cc1ccc(-c2csc(=Nc3ccccc3)n2NC(=O)c2ccncc2)cc1` . State its measured TGI.
Resp: > 100 µM

Req: Please list TGI recorded for the compound COc1ccc(OC)c(N2CC(N)C2=O)c1 (stereo not given)
Resp: > 100 µM

###

Tested on: OVCAR-5 ovarian
test.details: NCI tumour cell line growth inhibition, 48 h; in the data active = GI50 below about 0.43 µM; inactive = the rest
One label from this list, please: 1 (yes) (active), 0 (no) (inactive)

Req: Any idea what this test logged for `N[C@@H]1CCCC[C@@H]1N.O=P([O-])([O-])CN(CCN(CP(=O)([O-])[O-])CP(=O)([O-])[O-])CP(=O)([O-])[O-].[Pt+2]` ?
Resp: 0 (no)

Values compiled from PubChem BioAssay (NCI).
